Would you kindly list Result in α7+/− β-galactosidase assay for each of these compounds?
Tested on: α7 integrin promoter
Test: muscle cell-based assay: α7βgal+/− myoblasts/myotubes, LacZ reporter, β-galactosidase cleavage of FDG
Design: species or system mouse
Conditions: Myoblasts, 40 uM
Just the number, please, no unit attached.

Exam item: Fill in: Result in α7+/− β-galactosidase assay of Cc1nnc(SCC(=O)c2ccc(Br)cc2)s1 [drawing 709] is ___
Marked response: −0.07647

Exam item: Which Result in α7+/− β-galactosidase assay value belongs to Cc1[nH]c(/C=C2\C(=O)Nc3ccccc32)c(C)c1CCC(=O)O [drawing 717] ?
Marked response: −0.0832

Exam item: Quick check: Result in α7+/− β-galactosidase assay of O=C1Nc2ccccc2/C1=C1/Nc2ccccc2/C1=N\O [drawing 722] ?
Marked response: −0.8176

Exam item: Need Result in α7+/− β-galactosidase assay of COc1c(Cl)cc(/C=C2\C(=O)Nc3ccccc32)cc1Cl [drawing 713] , thanks.
Marked response: −0.4698

Exam item: Name the recorded Result in α7+/− β-galactosidase assay for COc1ccc(C(=O)Nc2ccc(Cl)cn2)cc1Cl [drawing 706] .
Marked response: −0.8234

Exam item: Which Result in α7+/− β-galactosidase assay value belongs to O=C1Nc2ccccc2/C1=C1/Nc2ccccc2/C1=N\O [drawing 726] ?
Marked response: −0.758

Exam item: Returns the measured Result in α7+/− β-galactosidase assay for the input compound. Input: COc1c(Cl)cc(/C=C2\C(=O)Nc3ccccc32)cc1Cl [drawing 712]
Marked response: −0.01132

Exam item: Fill in: Result in α7+/− β-galactosidase assay of Cc1cc(C)c(/C=C2\C(=O)Nc3ccccc32)[nH]1 [drawing 718] is ___
Marked response: −0.3534

Exam item: So what does the record say about Result in α7+/− β-galactosidase assay for CCOc1ccccc1NC(=O)c1cccc2c1C(=O)N(C1CCCCC1)C2 [drawing 707] ?
Marked response: 0.02179

Exam item: Which Result in α7+/− β-galactosidase assay value belongs to CCOC(=O)C1CCCN(C(=O)CNS(=O)(=O)c2ccc(Br)s2)C1 (stereo not shown) [drawing 708] ?
Marked response: −0.2189
